Molecular target: Muscarinic acetylcholine receptor M4 (Homo sapiens, UniProt P08173)
Sequence (P08173 whole entry): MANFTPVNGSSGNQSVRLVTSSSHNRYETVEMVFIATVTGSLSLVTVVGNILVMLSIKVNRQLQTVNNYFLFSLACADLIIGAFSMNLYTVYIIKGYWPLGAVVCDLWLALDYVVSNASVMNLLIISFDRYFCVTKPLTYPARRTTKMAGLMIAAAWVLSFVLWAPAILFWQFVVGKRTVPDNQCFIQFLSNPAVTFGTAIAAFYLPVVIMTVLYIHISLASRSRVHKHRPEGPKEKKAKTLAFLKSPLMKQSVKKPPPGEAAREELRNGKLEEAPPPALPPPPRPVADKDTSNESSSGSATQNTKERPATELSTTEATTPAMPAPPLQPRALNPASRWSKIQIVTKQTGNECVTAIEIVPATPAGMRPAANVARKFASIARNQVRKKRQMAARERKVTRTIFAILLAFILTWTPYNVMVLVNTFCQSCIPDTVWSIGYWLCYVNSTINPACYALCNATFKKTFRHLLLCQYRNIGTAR
Parameter Measured: Ki (µM)
Answer with a number only, understood to be in µM.

Recorded Ki (molecule Cc1ccc2oc(N3CCN4CCC3CC4)nc2n1 ): 3
